# tested-target: PARG (Homo sapiens, UniProt Q86W56)
# Sequence (Q86W56 whole entry): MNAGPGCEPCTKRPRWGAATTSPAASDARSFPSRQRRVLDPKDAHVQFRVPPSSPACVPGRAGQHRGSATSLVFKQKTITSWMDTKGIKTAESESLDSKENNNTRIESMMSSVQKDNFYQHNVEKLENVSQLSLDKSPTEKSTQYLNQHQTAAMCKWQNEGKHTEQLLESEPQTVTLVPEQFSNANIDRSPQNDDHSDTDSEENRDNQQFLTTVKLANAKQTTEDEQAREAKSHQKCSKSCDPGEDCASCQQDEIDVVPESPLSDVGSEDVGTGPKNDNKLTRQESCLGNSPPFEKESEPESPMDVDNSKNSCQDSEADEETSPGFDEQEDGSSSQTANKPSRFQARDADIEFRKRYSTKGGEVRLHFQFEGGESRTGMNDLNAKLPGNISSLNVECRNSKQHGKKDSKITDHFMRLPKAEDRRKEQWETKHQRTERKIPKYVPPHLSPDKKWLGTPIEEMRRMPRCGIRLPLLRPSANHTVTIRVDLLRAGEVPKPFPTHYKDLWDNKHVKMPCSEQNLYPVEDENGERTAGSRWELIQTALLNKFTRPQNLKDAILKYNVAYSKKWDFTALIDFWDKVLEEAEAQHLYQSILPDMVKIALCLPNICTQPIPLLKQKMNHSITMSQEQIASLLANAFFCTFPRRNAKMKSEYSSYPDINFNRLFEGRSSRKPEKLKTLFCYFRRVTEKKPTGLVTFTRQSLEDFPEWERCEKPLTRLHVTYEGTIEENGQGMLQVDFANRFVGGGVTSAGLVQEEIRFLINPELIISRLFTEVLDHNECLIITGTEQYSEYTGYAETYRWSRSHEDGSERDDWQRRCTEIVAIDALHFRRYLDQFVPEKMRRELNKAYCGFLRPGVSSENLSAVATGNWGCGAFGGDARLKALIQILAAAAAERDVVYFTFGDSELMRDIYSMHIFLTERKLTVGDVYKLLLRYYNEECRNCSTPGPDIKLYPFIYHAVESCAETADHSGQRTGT
# assay-explanation: Biochemical assay (PARG, TFMU-ADPr substrate)
# test-settings: PARG, TFMU-ADPr substrate
property-measured: IC50 (nM)

molecule	IC50 (nM)
C[C@H]1CN(c2cc(S(=O)(=O)NC3(C)COC3)cn3c(-c4nnc(C(F)(F)F)s4)cnc23)C[C@H](C)N1 [Example 189]	3.55
CC(=O)N1CC2(CC=C(c3cc(S(=O)(=O)NC4(C#N)CC4)cn4c(-c5nnc(C(F)F)s5)cnc34)C2)C1 [Example 13]	10.9
CC1(NS(=O)(=O)c2cc(N3CCN(C(=O)[C@@H]4CCN4)CC3)c3cnc(-c4nnc(C(F)(F)F)s4)n3c2)CC1 [Example 284]	16.6
C[C@H]1CN(c2cc(S(=O)(=O)NC3(C)COC3)cn3c(-c4nnc(C(F)F)s4)ncc23)C[C@H](CO)O1 [Example 396]	2.08

[a] CC1(NS(=O)(=O)c2cc(N3CCC(O)(C(F)(F)F)CC3)c3cnc(-c4nnc(C(F)F)s4)n3c2)COC1 [Example 72]
[b] C[C@@H]1CN(c2cc(S(=O)(=O)NC3(C#N)CC3)cn3c(-c4nnc(C(F)F)s4)ncc23)CCN1C(=O)C(C)(C)C [Example 84]
Compare IC50: is it lower for a or for b ? Pick one; state its label.
b
